tested on: M14 melanoma; assay: NCI tumour cell line growth inhibition, 48 h
endpointLabel: TGI

GET /values?readout=TGI&item= `CCN(CC)c1ccc(C(=O)c2ccccc2C(=O)O)c(O)c1`
> 100 µM

Param item: `S=c1sc2c(s1)SCCCCSCCCCSc1sc(=S)sc1SCCCCSCCCCS2`
> 100 µM

Now the same for `C1C[OH+]CC[OH+]CCNCC[OH+]CC[OH+]CCN1.N.[Cl-].[Pt+4]`
23.6 µM

What do we get for `O=[N+]([O-])C(C(Cl)=C(Cl)Cl)=C(N(Cc1ccccc1)Cc1ccccc1)N(Cc1ccccc1)Cc1ccccc1` ?
> 100 µM

Subsequent entry: `O=S(=O)(O)c1ccc2cccc(N=Nc3c(O)ccc4ccccc34)c2c1`
> 100 µM

Moving on to the next compound: `O=c1cc(NNc2ccccc2)[nH]c(=S)[nH]1`
> 100 µM

How about `C[C@@H]1C[C@H]2CC[C@H](O2)[C@H](C)C(=O)O[C@@H](C)C[C@@H]2CC[C@@H](O2)[C@@H](C)C(=O)O[C@H](C)C[C@H]2CC[C@H](O2)[C@H](C)C(=O)O[C@@H](C)C[C@@H]2CC[C@@H](O2)[C@@H](C)C(=O)O1` ?
> 85 µM

Same lookup for CC1C=C(OC(=O)c2ccccc2)C(=O)C(n2cc(F)c(=O)[nH]c2=O)O1 (stereo unspecified) , please.
> 100 µM

Try this compound too: O=C(C1OC1c1ccc(O)cc1)C12CC3CC(CC(C3)C1)C2 (stereo unspecified)
> 100 µM

Let us now turn to `O=C(O)/C=C\C(=O)N1C/C(=C\c2ccccc2Cl)C(=O)/C(=C/c2ccccc2Cl)C1`
10.6 µM

And `O=C(CN1CCOCC1)Nc1nc(-c2ccc(Cl)cc2)cs1` ?
> 100 µM

----------
test system: HS 578T breast; test: NCI tumour cell line growth inhibition, 48 h
Decide by TGI: equal to or exceeding 40 µM means true, less means false.

Record O=C(C1OC1c1ccc(O)cc1)C12CC3CC(CC(C3)C1)C2 (configuration not stated) ; criterion: TGI no lower than 40 µM. Met?
true

Now the molecule `CCOC(=O)CSc1nc(N)c2c(-c3ccc(OC)c(OC)c3)c3c(nc2n1)CCCC3`
false

Note, next up: CCCCCCCCCCC(C(=O)O)C1(C(=O)O)CCC(=O)O1 (configuration not stated)
true

Entry `CN1CC[C@@]2(c3cccc(O)c3)CC(=O)/C(=C/c3ccccc3)[C@H]1C2` please
false

How about this molecule: `COc1ccc2c(c1)cn1c3ccc(O)cc3nc(N)c21`
false

Proceed to N#CC12C(=O)N3C(=NC(c4ccccc4)NC3c3ccccc3)C1(C#N)C(c1ccccc1)NC1=C2CCC1 (configuration not stated)
true

// query: `COc1ccc2nc(-n3c(/C=C/c4ccccc4O)nc4ccccc4c3=O)sc2c1`
true

What do we get for `COc1ccc2oc(=N)c(C(=O)NCc3ccccc3)cc2c1` ?
true

Check COc1cc(C2CC(c3ccc4c(c3)OCO4)=NN2C=O)cc(OC)c1OC (configuration not stated) too.
false

Another molecule to check: `Cn1cc(-c2ccc3occ(-c4cccc(-c5ccncc5)c4)c3n2)cn1`
false

Field entry: N=c1c2c(C(N)=O)cn(C3OC(CO)C(O)C3O)c2ncn1O (configuration not stated)
false

// same read-out, input: `Cn1cccc1-c1cc(-c2cccs2)nc(N)c1C#N`
true

And the next one, `N=c1oc2cc(O)ccc2cc1C(=O)NCc1ccccc1` ?
true

Please do the same for `O=C(/C=C/c1ccccc1)c1cc(Br)ccc1O` as well.
true

Same question for `Cc1ccc(N=Nc2c(O)c(C(=O)O)cc3ccccc23)cc1C` please.
true

What do we get for COc1cc(C=C2C(C)=NN(c3cccc(Cl)c3)C23SCC(=O)N3c2nc3ccccc3s2)ccc1O (configuration not stated) ?
false

Same for `O=C(NCCO)Nc1ccc(-c2nc(N3CCOCC3)c3cccn3n2)cc1`
false

# iterate: `COc1ccc(/C=C2\NC(=S)N(CN3CCCCC3)C2=O)cc1`
true

Now give it for `N#Cc1c(N2CCCC2)[nH]c(=O)c(C(c2c(Cl)cccc2Cl)c2c(O)c(C#N)c(N3CCCC3)[nH]c2=O)c1O` too.
false

Another molecule to look at: `Cc1ccccc1[P+](Cc1ccccc1)(c1ccccc1)c1ccccc1`
false

Repeat for the following molecule: Nc1nc2c(c3ncncc13)C(c1cccc(C(F)(F)F)c1)Cc1ncncc1-2 (configuration not stated)
true

----------
For each entry below, report its log10 of TGI value.
tested on: LOX IMVI melanoma; assay: NCI tumour cell line growth inhibition, 48 h
Note: values are log10 of TGI expressed in µM.

Consider the compound shown here: `CC(C)c1cc(-c2n[nH]c(=O)n2-c2ccc3c(ccn3C)c2)c(O)cc1O` What is its recorded log10 of TGI?
-1.18

Now the compound `CC1=C(C)C(=O)c2c(cc3ccccn23)C1=O`
1.28

Proceed to `O=c1cc(NNc2ccccc2)[nH]c(=S)[nH]1`
1.50

Now this one: COC(=O)C1=CC2CCCC1(O)C(C(C)=O)C2 (stereo unspecified)
1.54

Another compound to check: `Cc1cc(N(CCCl)CCCl)ccc1C=Nc1ccc(-c2csc(Cc3ccccc3)n2)cc1`
1.32

Then what about the compound `Cc1c(C(=O)C/C(=N\O)C(=O)Nc2cc(Cl)c(Cl)cc2Cl)[n+](=O)c2ccccc2n1[O-]` ?
1.64

Consider next the compound `COc1ccc2c(C)cc(N/N=C(\C)C=O)nc2c1` in the same way.
1.38

Same thing, different compound: CC(=O)CCCCC(=O)Nc1ccc(CC(NC(=O)OC(C)(C)C)C(=O)NCC(=O)OCc2ccccc2)cc1 (stereo unspecified)
1.47

// next record `Cc1ccc(C(=O)c2nnc(C(=O)c3ccc(C)cc3)nn2)cc1`
1.55

Now this one: `COc1ccc2nc(-c3ccc(-c4noc(-c5cc(OC)c(OC)c(OC)c5)n4)cc3)[nH]c2c1`
1.54

What would you report for `O=C(/C=C/c1ccccc1)CCN1CCN(CCC(=O)/C=C/c2ccccc2)CC1` ?
0.77

----------
tested on: COLO 205 colon; assay: NCI tumour cell line growth inhibition, 48 h
endpointLabel: TGI

Item Cc1nc2cccc(F)c2c(=O)n1C1CCCCNC1=O (stereo not given) has what recorded TGI?
> 10 µM

What do you have for `Cc1ccc(-c2cn3ccnc3c(-c3ccc(Cl)cc3)n2)cc1` ?
> 29.3 µM

// same read-out, input: CC1OC(O[C@@H]2OC=C(C=O)[C@@]3(O)CC[C@H](C)[C@@H]23)C(O)C(O)C1O (stereo not given in full)
> 100 µM

And for COC12OC3(C4OC41)C(C(=O)O[C@H]3CO[Si](C)(C)C(C)(C)C)C2C(=O)Oc1ccccc1 (stereo not given in full) ?
> 100 µM

Also `CC1=Nc2ccccc2S/C1=C(/C)NNC(=O)C(N)=O` ?
> 100 µM

Again, but for `Cc1cc(N(CCC#N)CCC#N)ccc1N=Nc1cccc(C(=O)O)c1`
> 100 µM

// repeat for `S=c1sc2c(s1)SCCCCSCCCCSc1sc(=S)sc1SCCCCSCCCCS2` and report
> 100 µM

Request: `Cn1cccc1-c1cc(-c2cccs2)nc(N)c1C#N`
> 100 µM

Can you check `O=C(O)/C=C\C(=O)N1C/C(=C\c2ccccc2Cl)C(=O)/C(=C/c2ccccc2Cl)C1` next?
4.33 µM

Also `COc1ccc(OC)c(/C=C2\SC(=S)NC2=O)c1` ?
> 100 µM

----------
tested on: T-47D breast; test: NCI tumour cell line growth inhibition, 48 h
endpointLabel: TGI

TGI lookup needed for CC1CNc2ccccc2N=C1NN (stereo not drawn) , thanks.
> 100 µM

Ok, now `COc1cccc(-n2ncc3c(N/N=C/c4ccc(C(=O)NCCN(C)C)cc4)ncnc32)c1`
> 25 µM

Try this molecule next: `N=c1oc2c(Cl)cc(Cl)cc2cc1C(=O)Nc1cccc2ccccc12`
25.2 µM

Thanks! And `O=C(/C=C(\O)c1ccccc1)C(=O)NNc1ccc([N+](=O)[O-])cc1[N+](=O)[O-]` ?
48.5 µM

Another molecule to look at: `COc1ccc2oc(=N)c(C(=O)NCc3ccccc3)cc2c1`
44.6 µM

Try CC12CCC(CC1=O)C2(C)CCC(N)=O (stereo not drawn) next.
> 100 µM

Would you kindly repeat that for CCCC(=O)OC1C(C(O)CO)OC2OC(C)(C)OC21 (stereo not drawn) ?
> 100 µM

Try this molecule too: CC[C@@H](C(=O)O)C1CC[C@H](C)C([C@@H](C)[C@H](O)[C@H](C)C(=O)[C@H](CC)C2O[C@]3(C=C[C@@H](O)[C@]4(CC[C@@](C)(C5CC[C@](O)(CC)[C@H](C)O5)O4)O3)[C@H](C)C[C@@H]2C)O1 (stereo partly drawn)
16 µM

What would you report for `COC(=O)[C@@]1(C)CC[C@]2(C)CC[C@]3(C)C4=CC=C5C(=CC(=O)C(O)=C5C)[C@]4(C)[C@@H](O)C[C@@]3(C)[C@@H]2C1` ?
15.9 µM

Would you mind doing COC(=O)c1ccccc1CC1Cc2ccc3c(c2C1=O)CCC3 (stereo not drawn) as well?
> 100 µM

Can you check COc1ccc(/C=C2\CCCC3=C2N=C2SC(C)=NN2C3c2ccc(OC)c(OC)c2)cc1OC (stereo not drawn) next?
> 100 µM

// same read-out, input: Cc1nc2cccc(F)c2c(=O)n1C1CCCCNC1=O (stereo not drawn)
> 10 µM

Next molecule up: NC1CC(=O)c2sc(I)cc21 (stereo not drawn)
> 100 µM

Proceed to COc1cc2c(c(OC)c1)C1c3ccccc3NC(=O)N1CC2 (stereo not drawn)
> 100 µM

Same thing, different molecule: O=C1C=C2C(=NC34CCCCC3C(c3ccccc3)C3=C(c5ccccc5CC3)N24)c2ccccc21 (stereo not drawn)
> 10 µM

Okay, and `COc1ccc2c(c1)/C(=C\c1c(C)nc3sccn13)C(=O)N2` ?
> 67.2 µM

Next up: `O=C1c2ccccc2S(=O)(=O)c2c1cccc2[N+](=O)[O-]`
5.9 µM

Now consider `O=S(=O)(O)c1ccc2cccc(N=Nc3c(O)ccc4ccccc34)c2c1` .
> 100 µM

And the next one, `O=[N+]([O-])c1ccc(-c2nnc(C34CC5CC(CC(C5)C3)C4)o2)cc1` ?
> 100 µM

And what about the molecule `c1ccc([P+](Cc2ccc(C[P+](c3ccccc3)(c3ccccc3)c3ccccc3)cc2)(c2ccccc2)c2ccccc2)cc1` ?
> 100 µM

Also `CC(C)c1cc(-c2n[nH]c(=O)n2-c2ccc3c(ccn3C)c2)c(O)cc1O` , if possible.
34.5 µM

// next record `NC(=O)NNc1nc2ccccc2c(=O)n1NC(=O)C(=O)Nc1ccc(Cl)cc1Cl`
> 100 µM

Another: CC(CCC(=O)O)[C@H]1CCC2[C@@H]3CC[C@@H]4CC(O)CC[C@]4(C)C3CC[C@@]21C (stereo partly drawn)
> 100 µM

Proceed to `CC#C[C@]1(O)CC[C@H]2[C@@H]3CCC4=CC(=O)CCC4=C3[C@@H](c3ccc4c(c3)OCO4)C[C@@]21C`
577 µM

Please give the result for `Cc1ccc(-c2cn3ccnc3c(-c3ccc(Cl)cc3)n2)cc1` too.
> 58.5 µM

// next record `CCN(CC)CCCNc1nc(=O)[nH]c(C)c1C(=O)Nc1cccc2cc3ccccc3cc12`
> 100 µM

Ok, now `O=CC(=C(I)I)c1ccccc1`
9.18 µM

What about `CN1CCC(n2cnc(-c3ccc(F)cc3)c2-c2ccnc(NCCO)n2)CC1` ?
> 25 µM

Then `Nc1ncnc2ccc(Sc3ccc4ncnc(N)c4c3)cc12` ?
> 100 µM

Another molecule to look at: `CCOC(=O)C1(C(=O)OCC)Nc2cccnc2N(C)N1`
53.5 µM

Now try CC(NNC(=O)c1ccncc1)c1ccc(F)cc1 (stereo not drawn) .
> 100 µM

Further, for `COc1ccc(-c2csc(N(C(=O)N3CCN(c4cc5c(cc4F)c(=O)c(C(=O)O)cn5C4CC4)CC3)c3ccccc3)n2)cc1` ?
40.7 µM

Moving on to the next molecule: `O=C1C(Cl)=C(OCCCCl)C(=O)c2c(O)ccc(O)c21`
6.43 µM

COC12OC3(C4OC41)C(C(=O)O[C@H]3CO[Si](C)(C)C(C)(C)C)C2C(=O)Oc1ccccc1 (stereo partly drawn) ?
> 100 µM

Likewise for CC(=O)OCC1OC(SC2=N/C(=C\c3cc4c(=O)c5ccccc5sc4s3)C(=O)N2c2ccccc2)C(OC(C)=O)C(OC(C)=O)C1OC(C)=O (stereo not drawn) ?
> 100 µM

Also `CN(C)CC(=O)Nc1ccc(Cn2nnc3c2C(=O)c2nnn(Cc4ccc(NC(=O)CN(C)C)cc4)c2C3=O)cc1` ?
0.449 µM

What do you get for `Nc1ccccc1C#C/C=C\C#Cc1cccs1` ?
48.2 µM

One more molecule: O=C(NCCCCCCNC(=O)n1cc(F)c(=O)[nH]c1=O)NCCCOCCOCCOCCOCCOCCOCCOCCOCCOCCOCCOCCOCCOCCOCCOCCOCCOCCOCCOCCOCCOCCCNC(=O)C(O)C(O)C(O)C(O)CO (stereo not drawn)
> 100 µM

Reference source for all entries: PubChem BioAssay (NCI)
